These data points were gathered from patent US20220293224A1.

- system: rat CB1 receptor (Rattus norvegicus)
- Construct: membrane preparations from rat brain; from tissue; host or cells: rat brain membranes
- Sequence (P20272 whole entry): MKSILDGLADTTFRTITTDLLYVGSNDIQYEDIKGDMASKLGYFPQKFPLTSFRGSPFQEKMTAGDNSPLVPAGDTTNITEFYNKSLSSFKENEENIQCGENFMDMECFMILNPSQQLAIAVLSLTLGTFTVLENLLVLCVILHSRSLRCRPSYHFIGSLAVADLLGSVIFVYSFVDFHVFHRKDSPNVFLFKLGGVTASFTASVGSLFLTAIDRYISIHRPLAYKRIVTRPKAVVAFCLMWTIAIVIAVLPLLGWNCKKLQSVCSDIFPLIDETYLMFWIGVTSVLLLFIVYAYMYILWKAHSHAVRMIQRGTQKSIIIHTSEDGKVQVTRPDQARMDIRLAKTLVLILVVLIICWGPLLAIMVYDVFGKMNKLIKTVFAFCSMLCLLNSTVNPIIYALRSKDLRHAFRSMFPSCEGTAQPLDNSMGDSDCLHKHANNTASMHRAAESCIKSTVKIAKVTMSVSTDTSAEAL
- measurementNotes: Radioligand binding assay with [3H]CP-55,940, rat brain membranes
- conditionDescription: rat CB1, [3H]CP-55,940; estimates from 3-point assays; read-out: CB1 affinity Ki (asterisk: estimate from 3-point assays)
pKi: −log10 of the molar value.
Note to self: values exactly at 5 are criterion met. So pKi at or above 5 is criterion met, below is criterion not met.

• O=C(NCC1(Cc2ccccc2)CC=CCC1)C(=O)Nc1c(F)ccc(Br)c1F (stereo not drawn) [BRI-13566] = criterion met
• CS(C)(=O)=NS(=O)(=O)c1cccc(C(=O)OCc2cccc3ccsc23)c1 [BRI-13650] = criterion not met
• Cc1ccc(NC(=O)N2CCC(O)(c3ccccc3F)C2)cc1S(=O)(=O)N1CCCCCC1 (stereo not drawn) [BRI-13599] = criterion not met
• COc1ccc(-c2nccc(N3CCCC(Cc4ccc(N)nc4)C3)n2)cc1 (stereo not drawn) [BRI-13565] = criterion met
• O=C1CCc2cc(OCCNC(=O)N(Cc3ccccc3)Cc3ccc(F)cc3)ccc2N1 [BRI-13619] = criterion not met
• O=S(=O)(NC1CC1)c1ccc(S(=O)(=O)NC(CCc2ccccc2)c2ccccn2)cc1 (stereo not drawn) [BRI-13661] = criterion not met
